For each record, write down the corresponding IC50 B-16-F10.
# Test system: B16-F10 murine melanoma
# ASSAY_INFO: In vitro cytotoxicity assay, B16-F10 murine melanoma
# Assay type: cell-based
# CONDITION_SUMMARY: inhibit cell growth by 50%; four-fold serial dilution; <500 μg/ml positive; two lines per compound
Please give a number only; it is taken to be in µg/mL.

Enquiry: In one line, give reported IC50 B-16-F10 of the entry COc1cc(C2c3cc4c(cc3C(OC3OC5COC(C)OC5C(O)C3O)C3COC(=O)C23)OCO4)cc2nc[nH]c12 (stereo not drawn) .
Return: 55

Enquiry: Name the recorded IC50 B-16-F10 of the compound listed here: COc1cc(C2c3cc4c(cc3C(OC3OC5COC(C)OC5C(O)C3O)C3COC(=O)C23)OCO4)cc2nc(C)c(C)nc12 (stereo not drawn)
Return: 113

Enquiry: Give recorded IC50 B-16-F10. COC1=CC(C2c3cc4c(cc3C(OC3OC5COC(C)OC5C(O)C3O)C3COC(=O)C23)OCO4)=CC(=NOCc2ccccc2)C1=NOCc1ccccc1 (stereo not drawn)
Return: 14.1

These data points were gathered from patent US4874851A.
